Where a name gives a salt, the structure may show the parent alone.
# Lookup of reported melting point keyed by entry

Find the measured melting point of Cc1c(Cn2ccnc2)cccc1NC(=O)CNc1ccc(F)c(F)c1 and report it.
160 °C (dec.)

Find the measured melting point of Cc1cc(N2CCNCC2)ccc1NC(=O)CNc1ccc(F)c(F)c1 (as salt: hydrochloride) [Example 10, trihydrochloride] and report it.
> 230 °C

###

# Lookup of reported melting point keyed by entry
Structures can show the parent of a compound that is named as a salt.

Illustrative cases are given below, each with its answer.
Compound | melting point
O=C(CNc1ccc(F)c(F)c1)Nc1cc(N2CCNCC2)ccc1Cl (as salt: hydrochloride) | 240 °C (dec.)
Cc1c(CN(C)C)cccc1NC(=O)CNc1ccc(F)c(F)c1 | 144 °C (dec.)
Cc1ccc(CN2CCNCC2)cc1NC(=O)CNc1ccc(F)c(F)c1 (as salt: hydrochloride) [Example 1, trihydrochloride] | 232 to 248 °C (dec.)

// switching to the query compound
Find the measured melting point of Cc1ccc(CN2CCNCC2)cc1NC(=S)CNc1ccc(F)c(F)c1 and report it.
72 to 82 °C (dec.)
